Test: E. coli acrAB mutant growth effects, primary screen, E. coli filamentation inducers, strain DRC39, OD650, 24 h (AID 1178);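 note: growth measured as culture turbidity by optical density at 650 nm; test concentration not given here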
Conditions: higher = more signal, called active from +8 up or from −8 down
Please map values of z-score to classes as shown: low end: < 0.2; middle: ≥ 0.2 and < 1; high end: ≥ 1

Example results:
* COc1cc(CO)cc(I)c1O[C@H]1C=C(C(=O)NCCO)C[C@@H](NCCc2c[nH]c3ccccc23)[C@@H]1O | high end
* CO[C@@H]1COC(=O)CC=C[C@@H](C)[C@H](OC)COC(=O)CC=C[C@H]1C | middle
* CC(C)CN1C(=O)[C@@]2(Cc3ccccc31)c1ccccc1C(=O)N(C1CCCCC1)[C@H]2c1ccc(CO)cc1 | low end
* Cc1ccc(S[C@]2(C(=O)NC(C)C)CC(=O)N(Cc3cc(C(F)(F)F)cc(C(F)(F)F)c3)[C@@H]2c2ccc(CO)cc2I)cc1 | middle
* CC(C)N1CC=CC23O[C@@H]4/C=C\CCCOC(=O)C4[C@H]2C(=O)N(CCO)[C@@H]3C1=O (some centres not stated) | high end
* O=C1O[C@H](c2ccccc2)[C@H](c2ccccc2)N2[C@H]1[C@@H](C(=O)Nc1nc3ccccc3s1)[C@]1(C(=O)Nc3ccc(C#CC4=CCCCC4)cc31)[C@H]2c1ccccc1OCCO | low end

Lab note: sort CC[C@@H]1C=C(C(=O)O)[C@H](c2ccccc2)N1S(=O)(=O)c1ccc([N+](=O)[O-])cc1 into the matching z-score band.
low end

Lab note: sort COc1ccc([Si](C)(C)[C@H]2[C@H](CC(=O)N3Cc4ccccc4C[C@H]3CO)O[C@@]3(C(=O)N(Cc4cccc(N5CCOC5=O)c4)c4ccccc43)[C@@H]2C)cc1 into the matching z-score band.
high end

Lab note: sort C[C@@H]1CC[C@H]2C(=O)N3[C@@H](CC[C@@H](C)[C@@H]3c3cccc(N4CCOCC4)c3)C(=O)N2[C@H]1c1cccc(Br)c1 into the matching z-score band.
middle

----------
Molecular target: Alpha-bungarotoxin (Bungarus multicinctus)
Assay: alpha-bungarotoxin binders on microarray, profiling panel, artefact control for SMM control protein annotation, biochemical, small-molecule microarray, Alexa647 label, 635/667 nm fluorescence (AID 1117)
Details: alpha-BTX-A647 binding fluorescence, higher = more signal
Threshold rule: composite z-score greater than or equal to -0.5 is True; below that, False.

- COCCOC(=O)N1C(=O)[C@@]2(c3cc(C#CCCO)ccc31)[C@H](C(=O)N1CCCCCCC1)[C@H]1C(=O)O[C@H](c3ccccc3)[C@H](c3ccccc3)N1[C@@H]2c1ccc(O)cc1: True
- C=CC[C@]1(C(=O)O)N=C(c2ccc(OCCCO)cc2)O[C@H]1c1ccccc1: True
- CO[C@@H]1COC(=O)[C@H](COCc2ccccc2)NC(=O)CC=C[C@@H](C)[C@H](OC)COC(=O)[C@H](COCc2ccccc2)NC(=O)CC=C[C@H]1C: False

API: above_or_equal(metric=composite z-score, cutoff=-0.5) for item CO[C@@H]1COC(=O)[C@H](C)NC(=O)CC=C[C@@H](C)[C@H](NS(=O)(=O)c2ccc(C)cc2)COC(=O)CC=C[C@@H]1C
False

----------
Target: Streptavidin (Streptomyces avidinii) (UniProt P22629)
Sequence (P22629 whole entry, looked up): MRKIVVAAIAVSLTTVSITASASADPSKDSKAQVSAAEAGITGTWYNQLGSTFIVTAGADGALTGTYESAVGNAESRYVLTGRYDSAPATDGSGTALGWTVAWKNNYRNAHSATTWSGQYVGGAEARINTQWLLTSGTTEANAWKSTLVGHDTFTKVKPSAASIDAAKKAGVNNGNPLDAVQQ
Assay: streptavidin binders on small-molecule microarray, primary screen, artefact control for SMM compound annotation, biophysical, 635/667 nm fluorescence (AID 1147);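 note: signal reflects streptavidin binding to arrayed compounds as a control protein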
Details: streptavidin binding, higher = more signal
Threshold rule: composite z-score greater than or equal to 0.2 is satisfied; below that, not satisfied.

API: above_or_equal(metric=composite z-score, cutoff=0.2) for item C=CCOC(=O)[C@@H]1[C@H]2C(=O)O[C@H](c3ccccc3)[C@H](c3ccccc3)N2[C@H](c2ccc(OCCOC(=O)[C@H]3C[C@H]4C(=O)N[C@@H](CCCCNC(C)=O)C(=O)N4[C@H]3c3ccc(O)cc3)cc2)[C@@]12C(=O)Nc1ccc(I)cc12
not satisfied

API: above_or_equal(metric=composite z-score, cutoff=0.2) for item C=CCOC(=O)[C@@H]1[C@H]2C(=O)O[C@H](c3ccccc3)[C@H](c3ccccc3)N2[C@H](c2ccc(OCCOC(=O)[C@H]3C[C@H]4C(=O)N5CCC[C@H]5C(=O)N4[C@H]3c3ccc(O)cc3)cc2)[C@@]12C(=O)Nc1ccccc12
satisfied

API: above_or_equal(metric=composite z-score, cutoff=0.2) for item C=CCC(OC(C)=O)[C@@H]1[C@@H](N(Cc2ccc(-c3ccccc3)cc2)C(=O)c2ccc(-c3ccccc3)cc2)c2cc(OCCCO)ccc2N1C(=O)Cc1ccc(OC)cc1 (stereo partly specified)
satisfied

API: above_or_equal(metric=composite z-score, cutoff=0.2) for item CCOC(=O)C[C@H]1[C@H](OC(=O)Cc2ccc3c(c2)OCO3)[C@@H](NC(=O)CC(C)C)c2cc(OCCCO)ccc2N1C(=O)c1ccccc1
not satisfied

API: above_or_equal(metric=composite z-score, cutoff=0.2) for item C[C@@H]1C=CCC(=O)OC[C@H]2O[C@@H](C=C[C@@H]2O)[C@H](C)C=CCC(=O)OC[C@H]2O[C@H]1C=C[C@@H]2O
satisfied

API: above_or_equal(metric=composite z-score, cutoff=0.2) for item CC(C)(C)OC(=O)CC[C@]1(C(=O)NCCN2CCOCC2)N=C(c2ccc(OCCCO)cc2)O[C@H]1c1ccccc1CN=[N+]=[N-]
satisfied

----------
Assay: HepG2 cell viability effects, profiling panel, calcein-AM fluorescence, 48 h, basal (AID 1164); note: test concentration not given here
Details: higher = more signal
Measure Name: z-score
Would you mind answering with just the numeric figure?

Known z-score results, listed for orientation:
* C=C(COC)/C(=C/C[C@@H](OC(C)=O)c1cccc(OCCO)c1)c1cc(C(=O)OC)ccc1OC | 0.409
* CCCC[C@@H]1C[C@H]1[C@@H](NC(=O)c1cccs1)c1ccc(Cl)cc1 | -1.02
* COC(=O)c1c(CC[C@@H](CO)NC(=O)N[C@H](Cn2cc(-c3cncn3C)nn2)C(C)C)oc(C(C)=O)c1C(=O)OC | -0.102
* CCCNC(=O)[C@@]1(Sc2ccc(C)cc2)CC(=O)N(Cc2ccccc2Cl)[C@@H]1c1ccc(CO)cc1 | -0.597
* CCOC(=O)C1=CC[C@@H](c2ccccc2)N(S(=O)(=O)c2ccc(C)cc2)[C@H]1C | -1.21
* CCC#CCN(Cc1ccccc1Br)[C@H](/C=C/c1ccccc1)[C@@H](O)Cc1ccccc1 | -0.124
* CCOC(=O)C[C@H]1[C@H](OC(=O)c2cc3ccccc3oc2=O)[C@@H](NC(=O)C2CCCCC2)c2cc(OCCCO)ccc2N1C(=O)c1ccc2ccccc2n1 | 0.312

Turning now to a further record.
Return z-score for the following molecule: C[C@@H]1CC[C@H]2C(=O)N3CCC[C@H]3C(=O)N2[C@H]1c1ccc(Br)cc1
0.0327

----------
Test system: glycogen synthase kinase-3 (GSK3A per assay name; protocol says GSK3B)
Assay: GSK3 binders on small-molecule microarrays, primary screen, biochemical, small-molecule microarray, 635 nm fluorescence, GSK3A (AID 1103); note: the record names both GSK3A and GSK3B
Conditions: small-molecule microarray binding, fluorescence 635 nm; higher = more signal
Measure Name: composite z-score

Known composite z-score results, listed for orientation:
* Cc1ccc(S[C@]2(C(=O)NCCCN(C)C)CC(=O)N(C3CCCCC3)[C@@H]2c2ccc(CO)cc2I)cc1 | 0.219
* [N-]=[N+]=Nc1ccccc1C[C@@]1(C(=O)N2CCOCC2)N=C(c2ccc(OCCCO)cc2)O[C@@H]1c1ccccc1N=[N+]=[N-] | 1.29
* COCCOC(=O)N1C(=O)[C@@]2(c3cc(C#CCNC(N)=O)ccc31)[C@H](c1ccc(OCCO)cc1)N1[C@H](c3ccccc3)[C@H](c3ccccc3)OC(=O)[C@H]1[C@@H]2C(=O)Nc1nc2ccccc2s1 | -0.289
* C[C@]1(C(=O)NCc2ccccc2)c2ccccc2C(=O)N(Cc2cc(C(F)(F)F)cc(C(F)(F)F)c2)[C@H]1c1ccc(CO)cc1 | 1.18
* CC1CC/C=C\[C@H]2OC34C=CCN(Cn5nnc6ccccc65)C(=O)[C@H]3N(C(C)CO)C(=O)[C@@H]4C2C(=O)O1 (some centres not stated) | -0.837

Return composite z-score for the following compound: O=C(NCc1ccccc1)c1ccc(Br)cc1[N+](=O)[O-]
0.215

Return composite z-score for the following compound: O=C(CS)NCCCCCNC(=O)[C@H]1C[C@H]2C(=O)N[C@@H](Cc3ccccc3)C(=O)N2[C@H]1c1ccc(O)cc1
1.29

----------
Tested on: Inhibin beta A chain (activin A)
Assay: INHBA (activin A) binders on microarrays, primary screen, biochemical, small-molecule microarray, 635 nm fluorescence scan (AID 1107);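 note: mouse activin A protein probed at 4.33 µg/mL on printed slides; score merges bound-protein fluorescence near 667 nm with spot signal-to-noise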
Details: small-molecule microarray binding, higher = more signal
Measure Name: composite z-score
Would you mind answering with just the numeric figure?

Known composite z-score results, listed for orientation:
• CCOC(=O)C1=CC[C@@H](c2ccc(-c3ccc(OCc4ccccc4)cc3)c(OC)c2)N(S(=O)(=O)c2ccc(C)cc2)[C@H]1c1ccccc1 = 0.765
• Cc1ccc(S[C@]2(C(=O)NCCCN(C)C)CC(=O)N(Cc3ccccc3)[C@@H]2c2ccc(CO)cc2I)cc1 = 1.35
• COCCOC(=O)N1C(=O)[C@@]2(c3cc(C#CCCO)ccc31)[C@H](c1ccc(O)cc1)N1[C@H](c3ccccc3)[C@H](c3ccccc3)OC(=O)[C@H]1[C@@H]2C(=O)Nc1nc2ccccc2s1 = 0.364
• C=C[C@H](OC)[C@@H](OC(=O)Nc1ccc(SC)cc1)c1ccc(O)c(F)c1 = -0.433
• COc1ccc([Si](C)(C)[C@H]2[C@H](CC(=O)N3Cc4ccccc4C[C@H]3CO)O[C@@]3(C(=O)N(Cc4cccc(N5CCOC5=O)c4)c4ccccc43)[C@@H]2C)cc1 = 0.923

Turning now to a further record.
Provide measured composite z-score on Inhibin beta A chain (activin A) for CCC(=O)[C@]12O[C@@]3([C@@H]4C(=O)OCC[C@@H]41)N(CC)C(C)=C(C(=O)OC)[C@@H](c1ccccc1)N3C2=O please.
1.7
